B1: LINE1-full (parent)
chain: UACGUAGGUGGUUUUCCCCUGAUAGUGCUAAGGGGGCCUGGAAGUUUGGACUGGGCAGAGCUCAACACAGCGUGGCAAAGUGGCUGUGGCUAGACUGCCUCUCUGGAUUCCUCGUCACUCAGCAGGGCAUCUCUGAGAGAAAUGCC

- Variants of: B1
- experimentDescription: self-cleavage, relative activity (ratio to wild type); higher = more cleavage; in vitro, sequencing; the parent is a self-cleaving ribozyme
# self-cleavage listing for each entry below
Kindly provide the number alone.

-- ask Fill blank: measured self-cleavage of the variant U20C G21A is ____.
-- reply 1.12

-- ask And for U14C A30U ?
-- reply 1.11

-- ask And for C61U U112G ?
-- reply 0.04
